// values below are reported MCC
# System: HEL
# test.method.notes: Cytotoxicity as determined by alteration in the cell morphology of HEL cells
# Assay type: functional
# measurement.context: Homo sapiens
value.kind: MCC

[[record]]
compound_smiles = "Nc1ccn(C[C@@H](CO)OCP(=O)(O)O)c(=O)n1.O.O"
result = "≥ 400 µg/mL"

[[record]]
compound_smiles = "N#C/C=C\\[C@H]1O[C@@H](n2cnc3c(N)ncnc32)[C@H](O)[C@@H]1O"
result = "100 µg/mL"

[[record]]
compound_smiles = "Nc1nc2c(ncn2COCCO)c(=O)[nH]1"
result = "> 400 µg/mL"

[[record]]
compound_smiles = "O=c1[nH]c(=O)n([C@H]2C[C@H](O)[C@@H](CO)O2)cc1/C=C/Br"
result = "> 400 µg/mL"

[[record]]
compound_smiles = "N#C/C(Cl)=C\\[C@H]1O[C@@H](n2cnc3c(N)ncnc32)[C@H](O)[C@@H]1O"
result = "100 µg/mL"

[[record]]
compound_smiles = "Nc1nc2c(ncn2COC(CO)CO)c(=O)[nH]1"
result = "≥ 400 µg/mL"

[[record]]
compound_smiles = "N#C/C=C/[C@H]1O[C@@H](n2cnc3c(N)ncnc32)[C@H](O)[C@@H]1O"
result = "≥ 20 µg/mL"

